- Measurement target: recombinant human MAO-A (Homo sapiens, UniProt P21397)
- Construct: purchased Sigma-Aldrich M7316; host or cells: baculovirus-infected insect cells
- Sequence (P21397 whole entry): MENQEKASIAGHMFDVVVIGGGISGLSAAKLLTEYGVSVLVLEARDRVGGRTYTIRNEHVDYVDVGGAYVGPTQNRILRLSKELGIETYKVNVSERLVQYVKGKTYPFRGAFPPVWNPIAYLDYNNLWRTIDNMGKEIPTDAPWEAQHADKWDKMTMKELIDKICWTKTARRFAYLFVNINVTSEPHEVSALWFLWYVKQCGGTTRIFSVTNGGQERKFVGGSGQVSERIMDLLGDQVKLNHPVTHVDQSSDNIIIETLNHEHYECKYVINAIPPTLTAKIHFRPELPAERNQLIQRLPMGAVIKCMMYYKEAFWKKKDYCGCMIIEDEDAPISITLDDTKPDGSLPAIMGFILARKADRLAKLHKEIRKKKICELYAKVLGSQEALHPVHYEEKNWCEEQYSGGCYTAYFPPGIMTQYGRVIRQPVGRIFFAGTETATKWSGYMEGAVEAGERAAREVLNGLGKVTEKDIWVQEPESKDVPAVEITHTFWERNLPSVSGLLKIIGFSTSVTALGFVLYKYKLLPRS
- Assay notes: Monoamine oxidase assay (Amplex Red), MAO-A
- Assay type: biochemical
- Reported conditions: at 10,000 nM; read-out: % inhibition at indicated concentration, Human MAO-A
Property name: inhibition at 10 µM (%)

Use these answered entries as a reference point.
>  <Compound>
C#CCn1c(=O)c2c(nc3n2CCN(Cc2cc(C(F)(F)F)ccc2Cl)C3)n(C)c1=O [Compound 19b]

>  <Readout value>
5

$$$$
>  <Compound>
CCn1c(=O)c2c(nc3n2CCN(Cc2cc(Br)ccc2F)C3)n(C)c1=O [Compound 14o]

>  <Readout value>
15

$$$$

1. Cn1c(=O)c2c(nc3n2CCN(Cc2ccc(Cl)c(Cl)c2)C3)n(C2CC2)c1=O [Compound 17]
2. Cn1c(=O)[nH]c(=O)c2c1nc1n2CCN(CCc2ccc(Cl)c(Cl)c2)C1 [Compound 13g]
3. CCn1c(=O)c2c(nc3n2CCN(Cc2cc(F)cc(Cl)c2)C3)n(C)c1=O [Compound 14n]
4. CCn1c(=O)c2c(nc3n2CCN(Cc2ccc(F)c(Br)c2)C3)n(CC)c1=O [Compound 15k]
Hey, can you sort those compounds up there by inhibition at 10 µM, smallest first? Labels, requested order.
4, 1, 2, 3
(4: -10%, 1: 7%, 2: 12%, 3: 19%)

a. CCn1c(=O)c2c(nc3n2CCN(Cc2cccc(C(F)(F)F)c2)C3)n(C)c1=O [Compound 14e]
b. CCn1c(=O)c2c(nc3n2CCN(Cc2ccc(Cl)c(C(F)(F)F)c2)C3)n(CC)c1=O [Compound 15p]
c. CCn1c(=O)c2c(nc3n2CCN(Cc2cccc(Cl)c2)C3)n(C)c1=O [Compound 14i]
d. CCn1c(=O)c2c(nc3n2CCN(Cc2cc(C(F)(F)F)ccc2Cl)C3)n(CC)c1=O [Compound 15n]
e. CCn1c(=O)c2c(nc3n2CCN(Cc2ccc(Br)cc2)C3)n(C)c1=O [Compound 14c]
# sort list by recorded inhibition at 10 µM, greatest to least Labels, requested order.
c, a, b, e, d

A. Cn1c(=O)[nH]c(=O)c2c1nc1n2CCN(CCc2ccc(Cl)cc2Cl)C1 [Compound 13f]
B. CCn1c(=O)c2c(nc3n2CCN(Cc2ccc(F)c(C(F)(F)F)c2)C3)n(CC)c1=O [Compound 15i]
C. CCn1c(=O)c2c(nc3n2CCN(Cc2ccc(Br)cc2)C3)n(CC)c1=O [Compound 15e]
Hey, can you sort those compounds up there by inhibition at 10 µM, smallest first? Labels, requested order.
B, A, C

A. Cn1c(=O)[nH]c(=O)c2c1nc1n2CCN(Cc2ccccc2Br)C1 [Compound 13a]
B. CCCn1c(=O)c2c(nc3n2CCN(Cc2ccc(Cl)c(Cl)c2)C3)n(C)c1=O [Compound 18]
I'd appreciate it if you could identify which of A and B has the greater inhibition at 10 µM. Return value: the label identifying the chosen record.
A
(A: 13%, B: 9%)

a. CCn1c(=O)c2c(nc3n2CCN(Cc2cc(C(F)(F)F)ccc2Cl)C3)n(C)c1=O [Compound 14m]
b. C#CCn1c(=O)c2c(nc3n2CCN(c2cccc(OC)c2)C3)n(CC)c1=O [Compound 20c]
c. CCn1c(=O)c2c(nc(/C=C/c3ccc(OC)c(OC)c3)n2C)n(CC)c1=O [Istradefylline, istradefylline, reference compound]
d. CCn1c(=O)c2c(nc3n2CCN(Cc2cc(Cl)cc(Cl)c2)C3)n(CC)c1=O [Compound 15m]
# sort list by recorded inhibition at 10 µM, greatest to least Labels, requested order.
c, a, b, d

A. CCn1c(=O)c2c(nc3n2CCN(Cc2cccc(C(F)(F)F)c2F)C3)n(C)c1=O [Compound 14l]
B. C#CCn1c(=O)c2c(nc3n2CCN(Cc2ccc(Cl)c(Cl)c2)C3)n(C)c1=O [Compound 19a]
C. CCn1c(=O)c2c(nc3n2CCN(Cc2ccccc2C(F)(F)F)C3)n(C)c1=O [Compound 14d]
# sort list by recorded inhibition at 10 µM, greatest to least Labels, requested order.
B, A, C
(B: 12%, A: 8%, C: 5%)

P. CCn1c(=O)c2c(nc3n2CCN(Cc2cc(F)c(F)c(F)c2)C3)n(CC)c1=O [Compound 15r]
Q. CCn1c(=O)c2c(nc3n2CCN(Cc2cc(Cl)ccc2Cl)C3)n(C)c1=O [Compound 14j]
I'd appreciate it if you could identify which of P and Q has the greater inhibition at 10 µM. Return value: the label identifying the chosen record.
Q
(Q: 23%, P: 7%)
